These measurements were taken from PubChem BioAssay (NCI).

# Tested on: NCI-H226 lung
# measurement-description: NCI tumour cell line growth inhibition, 48 h
measure: TGI

In the examples that follow, each entry is paired with its recorded TGI.
compound	TGI
CC(=O)O[C@H]1C(=O)[C@@]2(C)C(C(OC(=O)c3ccccc3)C3[C@@H](O)C(OC(=O)[C@@H](O)[C@H](NC(=O)c4ccccc4)c4ccc(C(F)(F)F)cc4)C(C)=C1C3(C)C)[C@]1(OC(C)=O)CO[C@@H]1C[C@@H]2O (stereo partly drawn)	> 25 µM
N#Cc1c(N)nc(Sc2ccccc2N)c(C#N)c1-c1ccc(Cl)cc1	> 100 µM

If you can, please state the reported TGI value of O=C(O)C1CC(O)CN1 (stereo not drawn) .
> 100 µM

###

# Tested on: UACC-62 melanoma
# measurement-description: NCI tumour cell line growth inhibition, 48 h
I'd be grateful if you could share measured TGI for these entries.

> print(dat)
                     structure.notation   measured.target  measure  endpoint.result
1  O=C1C(Cl)=C(NCc2ccco2)C(=O)c2ccccc21  UACC-62 melanoma      TGI          13.6 µM

Field: TGI. Fill in for each record below.
1. COC(C)(C)C/C=C/C(C)=C/C=C/C(C)=C\C=C\C(C)=C\C=C\C=C(C)\C=C\C=C(C)\C=C\C=C(C)\C=C\CC(C)(C)OC
2. Cc1cc(C)cc(NC(N)=S)c1
3. CCOC(=O)c1c2c(n3ccccc13)C(=O)c1ncccc1C2=O
4. BrC(c1cccc2ccccc12)c1cccc2ccccc12
5. CC(C)OP(=O)(NC(=S)c1ccccc1)OC(C)C

1. > 150 µg/mL
2. > 100 µM
3. 1.39 µM
4. 27.7 µM
5. > 100 µM

Return reported TGI; argument: O=[N+]([O-])c1ccc(N/N=C/c2ccc(OCCCCCCCCCCCO)cc2)c([N+](=O)[O-])c1
7.74 µM

###

# Test system: SF-295 CNS
# measurement-description: NCI tumour cell line growth inhibition, 48 h
measure: TGI

> print(dat)
                                   compound  measure  endpoint.result
1  NC(N)=NS(=O)(=O)c1ccc(Nc2c3ccccc3nc3c(C(=O)Nc4ccc(S(N)(=O)=O)cc4)cccc23)cc1      TGI         > 100 µM

For each of the items listed, what is its TGI?
1. CC(C)(C)c1cc(O)ccc1O
2. Cc1cc2c([nH]c3ccccc32)c2c1OC(C)(C)C1C3CC(C)(C)Oc4c(C)cc5c6ccccc6n(c5c43)C21 (stereo not given)
3. CC(=O)c1cc2ccccc2oc1=O

> 100 µM
> 100 µM
> 100 µM

Consider the compound shown here: CCOC(=O)CCC(NC(=O)c1ccc(OCc2ccc3nc(-c4ccccc4)c(Cl)nc3c2)cc1)C(=O)OCC (stereo not given) What is its recorded TGI?
> 31.6 µM

###

Please respond with reported TGI for every item in the list.
# Test system: M14 melanoma
# measurement-description: NCI tumour cell line growth inhibition, 48 h

Example entries begin here.
> print(dat)
                                   molecule  measure  endpoint.result
1  Cc1cc(S(=O)(=O)Nc2nc3ccccc3c(=O)n2N)c(S)cc1Cl      TGI         > 100 µM
2                            CC1(C)OCC=CCO1      TGI         > 100 µM
3     O=C(O)CCc1nn2c(nc1=O)sc1ccc3ccccc3c12      TGI         > 100 µM
4  O=C1CC(c2ccccc2)n2cccc21 (stereo unspecified)      TGI         > 100 µM
5  COC(=O)C1(C)C=CC(=O)C2(C)C1C(O)C1OC3CC(c4ccoc4)C(C)=C3C1(C)C2CC(=O)O (stereo unspecified)      TGI         > 100 µM

Now for the molecule whose TGI we want.
Name the recorded TGI for O=C1c2ccccc2C(=O)N1CC(O)COc1cccc2ccccc12 (stereo unspecified) .
> 100 µM
